Target chain: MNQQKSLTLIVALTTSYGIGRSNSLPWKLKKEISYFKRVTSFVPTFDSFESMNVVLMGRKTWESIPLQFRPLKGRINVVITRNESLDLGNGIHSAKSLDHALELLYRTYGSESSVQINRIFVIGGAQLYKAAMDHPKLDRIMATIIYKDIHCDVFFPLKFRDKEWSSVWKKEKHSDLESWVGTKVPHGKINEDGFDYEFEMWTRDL
Quantity kind: IC50 (µM)

- Molecular string: "COc1cc(Cc2cnc(N)nc2N)cc(C#Cc2ccc(C(=O)O)cc2)c1OC"
  Quantity kind: "IC50"
  Value: 1.2

* * *

# Assayed target: Dihydrofolate reductase (Mycobacterium avium, UniProt O30463)
# Sequence (O30463 whole entry): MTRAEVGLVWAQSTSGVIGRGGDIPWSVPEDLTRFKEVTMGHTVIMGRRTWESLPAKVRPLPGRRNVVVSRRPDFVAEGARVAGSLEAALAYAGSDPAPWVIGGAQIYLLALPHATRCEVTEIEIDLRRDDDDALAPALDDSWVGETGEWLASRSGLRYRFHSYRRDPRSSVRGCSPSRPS
pIC50: −log10 of the molar value.

- Molecular string: "COc1cc(Cc2cnc(N)nc2N)cc(C#Cc2ccc(C(=O)O)cc2)c1OC"
  Assayed target: "Dihydrofolate reductase (Mycobacterium avium, UniProt O30463)"
  pIC50: 8.09
